- particulars: 335.16 K; 101.33 kPa; Liquid; Vibrating tube method
property_measured: mass density (kg/m3)
Entry rule: numbers only, all in kg/m3.

# annotated cases, reported mass density shown
1. C[NH2+]CCO.O=C[O-] [2-hydroxy-N-methylethanaminium formate]    1107.92
2. CCC(=O)[O-].C[NH2+]CCO [2-hydroxy-N-methylethanaminium propionate]    1046.64
3. CCCCC(=O)[O-].C[NH2+]CCO [2-hydroxy-N-methylethanaminium pentanoate]    990.827
4. CCCC(=O)[O-].C[NH2+]CCO [N-methyl-2-hydroxyethylammonium butanoate]    1013.83

*Q* Requested read-out: mass density. Entry: CC(C)C(=O)[O-].C[NH2+]CCO [2-hydroxy-N-methylethanaminium isobutyrate]
*A* 1018.9

*Q* # get_value(readout='mass density', item= CC(=O)[O-].C[NH2+]CCO [N-methyl-2-hydroxyethylammonium acetate] )
*A* 1078.08

====

- particulars: 337.4 K; 101.33 kPa; Liquid; Vibrating tube method
± gives the expanded uncertainty stated by the source.
property_measured: mass density
Reply with the number, then its unit.

1. CCCCC(=O)[O-].C[NH2+]CCO [2-hydroxy-N-methylethanaminium pentanoate]    989.229 ± 2.1 kg/m3
2. CC(=O)[O-].C[NH2+]CCO [N-methyl-2-hydroxyethylammonium acetate]    1076.63 ± 2.2 kg/m3
3. CC(C)C(=O)[O-].C[NH2+]CCO [2-hydroxy-N-methylethanaminium isobutyrate]    1017.35 ± 2.2 kg/m3
4. CCCC(=O)[O-].C[NH2+]CCO [N-methyl-2-hydroxyethylammonium butanoate]    1012.22 ± 2.1 kg/m3

*Q* Need mass density of C[NH2+]CCO.O=C[O-] [2-hydroxy-N-methylethanaminium formate] , thanks.
*A* 1106.78 ± 2.2 kg/m3

*Q* Look up mass density: CCC(=O)[O-].C[NH2+]CCO [2-hydroxy-N-methylethanaminium propionate]
*A* 1045.09 ± 2.2 kg/m3

====

- particulars: 329.65 K; 101.33 kPa; Liquid; Pulse-echo method
property_measured: speed of sound (m/s)
Give the number; m/s is assumed, so skip it.

*Q* May I ask what speed of sound has been recorded for CC(C)C(=O)[O-].C[NH2+]CCO [2-hydroxy-N-methylethanaminium isobutyrate] ?
*A* 1522

*Q* Please report the recorded speed of sound for C[NH2+]CCO.O=C[O-] [2-hydroxy-N-methylethanaminium formate] .
*A* 1754.1

*Q* What does the record list as speed of sound for CCCC(=O)[O-].C[NH2+]CCO [N-methyl-2-hydroxyethylammonium butanoate] ?
*A* 1515.9

*Q* What does the data say about its speed of sound? Entry: CCCCC(=O)[O-].C[NH2+]CCO [2-hydroxy-N-methylethanaminium pentanoate]
*A* 1451.6

*Q* Which value of speed of sound has been reported for CCC(=O)[O-].C[NH2+]CCO [2-hydroxy-N-methylethanaminium propionate] in the records?
*A* 1596.4

====

- particulars: 295.4 K; 101.33 kPa; Liquid; Vibrating tube method
The compounds listed here are annotated with their mass density.
// return numeric value only (unit: kg/m3, not printed)

1. CCC(=O)[O-].C[NH2+]CCO [2-hydroxy-N-methylethanaminium propionate]    1073.02
2. CC(=O)[O-].C[NH2+]CCO [N-methyl-2-hydroxyethylammonium acetate]    1102.44

Attention now turns to another entry.
*Q* Which mass density value is on record for CCCCC(=O)[O-].C[NH2+]CCO [2-hydroxy-N-methylethanaminium pentanoate] ?
*A* 1018.08

====

Listing: speed of sound of selected compounds
- particulars: 281.65 K; 101.33 kPa; Liquid; Pulse-echo method
Write it as a number; the unit m/s goes unstated.

The following compounds have reported results that may help.
1) CCCC(=O)[O-].C[NH2+]CCO [N-methyl-2-hydroxyethylammonium butanoate]    1670.1
2) CCCCC(=O)[O-].C[NH2+]CCO [2-hydroxy-N-methylethanaminium pentanoate]    1603.7
3) CC(C)C(=O)[O-].C[NH2+]CCO [2-hydroxy-N-methylethanaminium isobutyrate]    1659.2
4) CCC(=O)[O-].C[NH2+]CCO [2-hydroxy-N-methylethanaminium propionate]    1740.7

--- query ---
*Q* Can you look up the measured speed of sound of C[NH2+]CCO.O=C[O-] [2-hydroxy-N-methylethanaminium formate] for me?
*A* 1847.7

====

compounds and their reported mass density
- particulars: 299.65 K; 101.33 kPa; Liquid; Vibrating tube method
Please give a number only; it is taken to be in kg/m3.

*Q* Param item = C[NH2+]CCO.O=C[O-] [2-hydroxy-N-methylethanaminium formate] ; retrieve measured mass density.
*A* 1127.41

*Q* Return reported mass density; argument: CCCCC(=O)[O-].C[NH2+]CCO [2-hydroxy-N-methylethanaminium pentanoate]
*A* 1015.19

*Q* So what's the measured mass density for this one? CC(=O)[O-].C[NH2+]CCO [N-methyl-2-hydroxyethylammonium acetate]
*A* 1099.93

====

- particulars: 329.16 K; 101.33 kPa; Liquid; Vibrating tube method
property_measured: mass density (kg/m3)
Unit kg/m3 implied. Number only.

Examples from the recorded data:
1) CCCC(=O)[O-].C[NH2+]CCO [N-methyl-2-hydroxyethylammonium butanoate]    1018.07
2) C[NH2+]CCO.O=C[O-] [2-hydroxy-N-methylethanaminium formate]    1111.06
3) CCCCC(=O)[O-].C[NH2+]CCO [2-hydroxy-N-methylethanaminium pentanoate]    995.05
4) CCC(=O)[O-].C[NH2+]CCO [2-hydroxy-N-methylethanaminium propionate]    1050.76
5) CC(=O)[O-].C[NH2+]CCO [N-methyl-2-hydroxyethylammonium acetate]    1081.87

We now examine a further compound.
*Q* Would you mind telling me what mass density value was observed for CC(C)C(=O)[O-].C[NH2+]CCO [2-hydroxy-N-methylethanaminium isobutyrate] ?
*A* 1022.99

====

- particulars: 336.41 K; 101.33 kPa; Liquid; Vibrating tube method
Documented mass density across a set of molecules
Note: unit kg/m3 is implicit; provide only the numeric part.

Example entries and their recorded answers appear below.
1) CC(C)C(=O)[O-].C[NH2+]CCO [2-hydroxy-N-methylethanaminium isobutyrate]    1018.04
2) CCC(=O)[O-].C[NH2+]CCO [2-hydroxy-N-methylethanaminium propionate]    1045.78
3) CC(=O)[O-].C[NH2+]CCO [N-methyl-2-hydroxyethylammonium acetate]    1077.28
4) CCCC(=O)[O-].C[NH2+]CCO [N-methyl-2-hydroxyethylammonium butanoate]    1012.94

*Q* Entry under review: CCCCC(=O)[O-].C[NH2+]CCO [2-hydroxy-N-methylethanaminium pentanoate] . Reported mass density?
*A* 989.938

*Q* Which mass density value is on record for C[NH2+]CCO.O=C[O-] [2-hydroxy-N-methylethanaminium formate] ?
*A* 1107.29

====

mass density reference
- particulars: 333.66 K; 101.33 kPa; Liquid; Vibrating tube method
Supply the numeric figure in kg/m3, leaving out any unit text.

1) CC(=O)[O-].C[NH2+]CCO [N-methyl-2-hydroxyethylammonium acetate]    1079.03
2) CCCCC(=O)[O-].C[NH2+]CCO [2-hydroxy-N-methylethanaminium pentanoate]    991.886
3) CCC(=O)[O-].C[NH2+]CCO [2-hydroxy-N-methylethanaminium propionate]    1047.68
4) CCCC(=O)[O-].C[NH2+]CCO [N-methyl-2-hydroxyethylammonium butanoate]    1014.89
5) CC(C)C(=O)[O-].C[NH2+]CCO [2-hydroxy-N-methylethanaminium isobutyrate]    1019.93

*Q* If you can, please state the reported mass density value of C[NH2+]CCO.O=C[O-] [2-hydroxy-N-methylethanaminium formate] .
*A* 1108.69

====

- particulars: 290.9 K; 101.33 kPa; Liquid; Vibrating tube method
property_measured: mass density (kg/m3)
Write the number in kg/m3 without appending the unit.

1. CCC(=O)[O-].C[NH2+]CCO [2-hydroxy-N-methylethanaminium propionate]    1075.98
2. CC(=O)[O-].C[NH2+]CCO [N-methyl-2-hydroxyethylammonium acetate]    1105.13
3. CCCCC(=O)[O-].C[NH2+]CCO [2-hydroxy-N-methylethanaminium pentanoate]    1021.13
4. CC(C)C(=O)[O-].C[NH2+]CCO [2-hydroxy-N-methylethanaminium isobutyrate]    1047.94
5. C[NH2+]CCO.O=C[O-] [2-hydroxy-N-methylethanaminium formate]    1132.3

*Q* Can you look up the measured mass density of CCCC(=O)[O-].C[NH2+]CCO [N-methyl-2-hydroxyethylammonium butanoate] for me?
*A* 1044.16

====

- particulars: 303.15 K; 101.33 kPa; Liquid
// reported viscosity for each item listed
Just the number in mPa·s, nothing appended.

*Q* Value lookup for viscosity; key = C[NH2+]CCO.O=C[O-] [2-hydroxy-N-methylethanaminium formate]
*A* 16.4

*Q* GET /values?readout=viscosity&item= CC(C)C(=O)[O-].C[NH2+]CCO [2-hydroxy-N-methylethanaminium isobutyrate]
*A* 124.67

*Q* Which viscosity reading was recorded for the compound CCCC(=O)[O-].C[NH2+]CCO [N-methyl-2-hydroxyethylammonium butanoate] ?
*A* 219.16

*Q* Return reported viscosity; argument: CCC(=O)[O-].C[NH2+]CCO [2-hydroxy-N-methylethanaminium propionate]
*A* 158.24

*Q* Form field: reported viscosity of CC(=O)[O-].C[NH2+]CCO [N-methyl-2-hydroxyethylammonium acetate]
*A* 78.7

*Q* Can you look up the measured viscosity of CCCCC(=O)[O-].C[NH2+]CCO [2-hydroxy-N-methylethanaminium pentanoate] for me?
*A* 175.84

Where do the numbers come from? From the NIST ThermoML archive (doi:10.1021/je900550v).
